- MEASUREMENT_TARGET: Lysosomal acid glucosylceramidase (Homo sapiens) (UniProt P04062)
- Sequence (P04062 whole entry): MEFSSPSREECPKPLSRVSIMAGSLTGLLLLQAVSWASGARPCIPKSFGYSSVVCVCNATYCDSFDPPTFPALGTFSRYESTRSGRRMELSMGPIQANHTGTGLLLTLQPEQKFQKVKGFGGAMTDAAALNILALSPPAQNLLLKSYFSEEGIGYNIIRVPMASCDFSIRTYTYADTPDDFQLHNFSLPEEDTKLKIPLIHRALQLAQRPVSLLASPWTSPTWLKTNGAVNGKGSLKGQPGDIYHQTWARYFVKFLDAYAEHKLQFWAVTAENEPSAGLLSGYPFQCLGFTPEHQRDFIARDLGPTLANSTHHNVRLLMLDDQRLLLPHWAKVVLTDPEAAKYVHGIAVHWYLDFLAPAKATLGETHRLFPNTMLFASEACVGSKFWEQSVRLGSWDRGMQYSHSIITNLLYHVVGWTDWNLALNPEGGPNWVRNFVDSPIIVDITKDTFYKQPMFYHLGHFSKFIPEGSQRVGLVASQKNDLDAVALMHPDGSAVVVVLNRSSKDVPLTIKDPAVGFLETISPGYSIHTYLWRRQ
- METHOD_SUMMARY: Effect on wild type beta-glucocerebrosidase activity in human skin fibroblasts at 0.2 uM using 4-methylumbelliferyl beta-D glycopyranoside as substrate after 5 days by fluorometric method relative to control
Listed here are compounds together with their documented fold change (FC).
Give a plain numeric answer without units written out.

{"columns": ["STRUCTURE", "MEASUREMENT_TARGET", "READING"],
 "data": [
  ["CCCCCCCC/N=C1/SC[C@@H]2[C@H](O)[C@H](O)CN12", "Lysosomal acid glucosylceramidase (Homo sapiens) (UniProt P04062)", 0.82],
  ["CCCCCCCCNC(=S)N1CC[C@@H](O)[C@H](O)[C@H]1CO", "Lysosomal acid glucosylceramidase (Homo sapiens) (UniProt P04062)", 1.12],
  ["CCCCCCCC/N=C1/SC[C@@H]2[C@@H](O)[C@H](O)CCN12", "Lysosomal acid glucosylceramidase (Homo sapiens) (UniProt P04062)", 0.89],
  ["CCCCCCCCNC(=S)N1C[C@H](O)[C@@H](O)[C@@H]1CO", "Lysosomal acid glucosylceramidase (Homo sapiens) (UniProt P04062)", 0.91]
]}

Enquiry: State its fold change (FC) on Lysosomal acid glucosylceramidase (Homo sapiens) (UniProt P04062): OCCCCCCCCCCCCCCCC/N=C1/SC[C@H]2[C@H](O)[C@@H](O)CN12
Return: 0.91

Enquiry: State its fold change (FC) on Lysosomal acid glucosylceramidase (Homo sapiens) (UniProt P04062): CCCCCCCC/N=C1/SC[C@H]2[C@H](O)[C@@H](O)CN12
Return: 0.85

Enquiry: State its fold change (FC) on Lysosomal acid glucosylceramidase (Homo sapiens) (UniProt P04062): CCCCCCCCNC(=S)N1C[C@@H](O)[C@H](O)[C@H]1CO
Return: 0.93

Enquiry: State its fold change (FC) on Lysosomal acid glucosylceramidase (Homo sapiens) (UniProt P04062): OCCCCCCCCCCCCCCCC/N=C1/SC[C@@H]2[C@@H](O)[C@H](O)CCN12
Return: 0.86

Enquiry: State its fold change (FC) on Lysosomal acid glucosylceramidase (Homo sapiens) (UniProt P04062): OCCCCCCCCCCCCCCCC/N=C1/SC[C@@H]2[C@H](O)[C@H](O)CN12
Return: 0.83
